Molecular target: T1, FcRL1, overexpressed on 3T3 cells (UniProt Q96LA6 17-429, limits assumed)
T1 construct: whole, on cells
T1 sequence (looked up): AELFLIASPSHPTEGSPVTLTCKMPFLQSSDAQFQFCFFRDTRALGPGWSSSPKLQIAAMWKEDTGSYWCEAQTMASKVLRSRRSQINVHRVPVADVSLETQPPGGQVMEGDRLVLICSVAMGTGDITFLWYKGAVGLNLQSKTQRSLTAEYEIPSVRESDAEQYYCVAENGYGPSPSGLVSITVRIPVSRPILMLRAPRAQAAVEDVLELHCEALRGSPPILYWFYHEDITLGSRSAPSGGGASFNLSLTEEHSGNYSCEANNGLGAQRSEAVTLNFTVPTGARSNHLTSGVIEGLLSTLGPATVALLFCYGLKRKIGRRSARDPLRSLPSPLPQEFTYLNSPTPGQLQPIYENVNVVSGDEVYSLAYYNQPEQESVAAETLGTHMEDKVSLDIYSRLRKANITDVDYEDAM
Assay: phage clone on 3T3-FcRL1 cells
readout type: binding result

>>> result("ET200-015 (scFv, screened as phage clone; entry is VL-linker-VH-His tag-HA tag) scFv: QSVVTQPPSVSVAPGKTARITCGGNNIGSKSVHWYQQKPGQAPVLVIYYDSDRPSGIPERFSGSNSGNTATLTISRVEAGDEADYYCQVWDSSSDVVFGGGTKLTVLGSRGGGGSGGGGSGGGGSLEMAEVQLVQSGAEVKKPGASVKVSCKASGYTFTSYGISWVRQAPGQGLEWMGWISAYNGNTNYAQKLQGRVTMTTDTSTSTAYMELRSLRSDDTAVYYCARWGGFGAVDHWGQGTLVTVSSTSGQAGQHHHHHHGAYPYDVPDYAS")
"no binding"
>>> result("ET200-045 (scFv, screened as phage clone; entry is VL-linker-VH-His tag-HA tag) scFv: QPVLTQPPSVSVAPGKTATITCGGNNIGSESVHWYHQKPGQAPVLVIYDDAGRPSGIPERFTGSNSGNTATLTISRVEAGDEADYYCQVWDRNSAQFVFGPGTKVTVLGSRGGGGSGGGGSGGGGSLEMAEVQLVQSGAEVKKPGASVKVSCKASGYTFTSYGISWVRQAPGQGLEWMGWISAYNGNTNYAQKLQGRVTMTTDTSTSTAYMELRSLRSDDTAVYYCARGVHLDWWGQGTLVTVSSTSGQAGQHHHHHHGAYPYDVPDYAS")
"no binding"

Provenance of the data: patent US20210388081A1
